test.system: T1, SUDV GP on rVSV particles (Sudan virus (SUDV), UniProt Q66814 33-676)
T1 sequence: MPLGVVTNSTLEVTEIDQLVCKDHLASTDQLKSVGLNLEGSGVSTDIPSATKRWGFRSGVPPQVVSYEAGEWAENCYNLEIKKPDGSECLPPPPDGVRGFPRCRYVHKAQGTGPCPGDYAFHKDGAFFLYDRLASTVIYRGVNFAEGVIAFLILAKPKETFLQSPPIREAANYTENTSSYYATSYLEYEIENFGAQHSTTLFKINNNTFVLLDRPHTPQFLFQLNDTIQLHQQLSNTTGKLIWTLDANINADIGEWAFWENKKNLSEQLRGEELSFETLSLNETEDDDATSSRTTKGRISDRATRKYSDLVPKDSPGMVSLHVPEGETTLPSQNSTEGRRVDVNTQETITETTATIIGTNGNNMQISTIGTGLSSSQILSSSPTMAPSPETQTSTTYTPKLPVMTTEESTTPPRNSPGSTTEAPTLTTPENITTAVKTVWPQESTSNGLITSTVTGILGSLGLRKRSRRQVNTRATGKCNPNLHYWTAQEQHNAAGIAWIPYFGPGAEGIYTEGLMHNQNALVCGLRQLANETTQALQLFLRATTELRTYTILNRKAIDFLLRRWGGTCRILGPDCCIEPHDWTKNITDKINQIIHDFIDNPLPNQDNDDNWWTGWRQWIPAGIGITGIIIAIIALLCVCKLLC
test.name: cell-based or functional assay
endpoint.label: IC50, half-maximal neutralization of viral infectivity (rVSV-GP) (nM)
Give the value in nM but do not write nM after it.

Q: Given the binder PE-87 V102A (antibody, V domains shown) VH: QVQLVQSGVTLVQPGGSLRVSCAASGFTFSSYAMSWVRQAPGKGLEWVSAISGLGGSTYYADSVKGRFTISRDNSKNTLYLQMNSLRAEDTAVYYCAKDHRAWAAGYHFDYWGQGALVTVSS VL: DIVLTQSPSTLSASVGDRVTITCRASQSISSWLAWYQQKPGEAPKLLISDASSLESGVPSRFSGSGSGTEFTLTISSLQPDDFATYYCQQYYSSPTFGGGTKVEIK , what is its reported IC50, half-maximal neutralization of viral infectivity (rVSV-GP)?
A: 1.1

Q: Given the binder PE-87 G106A (antibody, V domains shown) VH: QVQLVQSGVTLVQPGGSLRVSCAASGFTFSSYAMSWVRQAPGKGLEWVSAISGLGGSTYYADSVKGRFTISRDNSKNTLYLQMNSLRAEDTAVYYCAKDHRVWAAAYHFDYWGQGALVTVSS VL: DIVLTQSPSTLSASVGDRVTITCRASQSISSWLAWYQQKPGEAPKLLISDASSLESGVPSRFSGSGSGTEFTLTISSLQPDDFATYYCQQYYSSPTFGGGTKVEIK , what is its reported IC50, half-maximal neutralization of viral infectivity (rVSV-GP)?
A: 0.9

FYI, the data here is from patent EP3583122A1.
